This collection of values is drawn from PubChem BioAssay AID1159580.

assay-comment: chemical genetic growth profiling, strain panel (AID 1159580);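 further: tested at 20 µM; growth read once vehicle control cultures reached saturation at 30 °C; 1 = growth at the plate median or of vehicle wells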
applied-conditions: S. cerevisiae deletion strains, growth OD, locus YPL106C, strain sse1
The whole screen tested about 5,500 compounds, of which about 2,000 (36%) were called active. Not shown: some 18% with an inconclusive outcome. No stated cut-off is given here; in the data, active means normalized growth mostly below about 0.91 (no sharp cut-off); inconclusive means no clear call, values can overlap the other calls; inactive means mostly above about 0.92. Some of the results follow.
Labels: active, inactive

compound	qualitative-label
CC(C)=CCCC1(C)C=Cc2c(O)c3c(c(CC=C(C)C)c2O1)OC12C(=CCCC1C(C)(C)O[C@@]2(C/C=C(\C)C(=O)O)C(=O)O)C3=O (stereo partly drawn)	inactive
CCCCCCCCCCCCCCC(C(=O)O)C(O)(CC(=O)OC)C(=O)O (stereo not drawn)	inactive
CCC(C)C(=O)O[C@H]1[C@H](O)C2C(CN3CC(C)CCC3[C@@]2(C)O)C2C[C@]34O[C@]5(O)C(OC(=O)C(C)(O)CC)CC[C@@]3(C)C5C(OC(C)=O)[C@@H](OC(C)=O)C4[C@@]21O (stereo partly drawn)	inactive
NC12CC3CC(CC(C3)C1)C2	inactive
NCCC(=O)N[C@@H](Cc1cnc[nH]1)C(=O)O	inactive
OC(CCN1CCCCC1)(c1ccccc1)C1CCCCC1 (stereo not drawn)	inactive
CC(C)(Oc1ccc(CCNC(=O)c2ccc(Cl)cc2)cc1)C(=O)O	inactive
N#CC(O[C@@H]1O[C@H](CO[C@@H]2O[C@H](CO)[C@@H](O)[C@H](O)[C@H]2O)[C@@H](O)[C@H](O)[C@H]1O)c1ccccc1 (stereo partly drawn)	inactive
CCOC(=O)OC(C)OC(=O)C1N2C(=O)C(NC(=O)[C@H](N)c3ccccc3)C2SC1(C)C (stereo partly drawn)	inactive
Cc1ccc(S(=O)(=O)NC(=O)NN2CC3CCCC3C2)cc1 (stereo not drawn)	inactive
CCOc1ccc2nc3cc(N)ccc3c(N)c2c1	active
CC(C)(Sc1cc(C(C)(C)C)c(O)c(C(C)(C)C)c1)Sc1cc(C(C)(C)C)c(O)c(C(C)(C)C)c1	inactive
Nc1ccc(S(=O)(=O)c2ccc(N)cc2)cc1	inactive
Cc1cc(O)cc(O)c1C(=O)O	inactive
FC(F)(F)c1ccccc1-n1ccnc1	inactive
Nc1c2ccccc2nc2ccccc12 (tested in a mixture with another compound)	active
CC1(C)CC[C@]2(C(=O)O)CC[C@]3(C)C(=CCC4[C@@]5(C)CC[C@@H](O)C(C)(C)C5CC[C@]43C)C2C1 (stereo partly drawn)	inactive
CC(CC(=O)C(O)C(C)(C)O)C1C(=O)CC2(C)C3=CCC4C(C)(C)C(OC5OCC(O)C(O)C5O)CCC45CC35C(O)CC12C (stereo not drawn)	inactive
CC1(C)CC[C@]2(C(=O)O)CC[C@]3(C)C(=CCC4[C@@]5(C)CC[C@H](O)[C@@](C)(CO)C5CC[C@]43C)C2C1 (stereo partly drawn)	inactive
CC(=O)O[C@@H]1CC[C@@]2(C)C(CC[C@]3(C)C2CC=C2C4CC(C)(C)CC[C@]4(C(=O)O)CC[C@]23C)C1(C)C (stereo partly drawn)	inactive
NNC(=O)c1ccncc1	inactive
C#C[C@]1(O)CCC2C3CCC4=C(CCC(=O)C4)C3CC[C@@]21C (stereo partly drawn)	inactive
CC(=O)NCc1c(I)c(NC(C)=O)c(I)c(C(=O)O)c1I	inactive

====

assay-comment: chemical genetic growth profiling, strain panel (AID 1159580);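 further: tested at 20 µM; growth read once vehicle control cultures reached saturation at 30 °C; 1 = growth at the plate median or of vehicle wells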
applied-conditions: S. cerevisiae deletion strains, growth OD, locus YLR058C, strain SHM2 (second series), stronger effect = lower value
Screen size: about 5,500 compounds; about 2,000 (36%) were called active. Inconclusive results (about 18%) are left out. This is one part of the list.

molecule	normalized growth
O=C(O)/C=C/C(=O)Nc1ccc(-n2nc(C(F)(F)F)cc2C(F)(F)F)cc1	1.02 (inactive)
CCOC(=O)NC(=O)c1cn(Cc2cccs2)c(=O)[nH]c1=O	1.01 (inactive)
Cc1noc(N)c1C(N)=S	1 (inactive)
O=C(O)CSCC(=O)NC1CCN(Cc2ccccc2)CC1	0.998 (inactive)
S=C(NCc1cccnc1)Nc1ccccc1Cl	0.987 (inactive)
CCN(CC)c1ccc(NC(=O)c2c(F)cccc2F)c(N(CC)CC)n1	1 (inactive)
Cc1cc(C)cc(NC(=S)N2CCN(c3ncc(C(F)(F)F)cc3Cl)CC2)c1	1.01 (inactive)
COc1ccc(-c2n[nH]c(=S)n2-c2cccc(OC)c2)cc1	0.989 (inactive)
CC(=O)Nc1c(C)c(C)c(C)c(C)c1NC(C)=O	1.02 (inactive)
CC(C)(C)OC(=O)C(C)(C)S(=O)(=O)c1ccc(Cl)cc1	1.01 (inactive)
O=C(N/N=C\c1c(O)ccc2ccccc12)N/N=C\c1c(O)ccc2ccccc12	0.992 (inactive)
Nc1ccc(-n2nc(C(F)(F)F)cc2C(F)(F)F)cc1	0.975 (inactive)
COc1cc(C2OC(c3cc(C)ccc3[N+](=O)[O-])=NN2C(C)=O)cc(OC)c1OC (centres undefined)	0.978 (inactive)
COc1ccc(C(=O)CN2CCN(c3cc(C)nc4ccccc34)CC2)cc1	1.01 (inactive)
O=C(O)c1ccc(N=Cc2ccc3c(c2)OCO3)cc1	0.99 (inactive)
O=C(CSCc1c(F)cccc1Cl)NC1Cc2ccccc2C1	0.973 (inactive)
N#CC(C#N)=CNc1cccc(N)n1	0.992 (inactive)
Cn1c(CSCC(=O)Nc2ccccc2)n[nH]c1=S	1 (inactive)
CC(OCc1ccccc1)C(NC(=O)OC(C)(C)C)C(N)=O (centres undefined)	1 (inactive)
N#CC(NCc1ccccc1)c1ccc(Cl)c(Cl)c1 (centres undefined)	0.995 (inactive)
COc1ccccc1C1OC(=O)CC1C(=O)O (centres undefined)	1.01 (inactive)
Cc1cc(=O)n2[nH]cc(C#N)c2n1	1 (inactive)
COc1ccc(Oc2cc(C)nc3ccccc23)cc1	1 (inactive)
O=C(COc1ccc2c(c1)OCO2)N1CCN(c2ncc(C(F)(F)F)cc2Cl)CC1	0.998 (inactive)

====

assay-comment: chemical genetic growth profiling, strain panel (AID 1159580);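 further: tested at 20 µM; growth read once vehicle control cultures reached saturation at 30 °C; 1 = growth at the plate median or of vehicle wells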
applied-conditions: S. cerevisiae deletion strains, growth OD, locus YLR262C, strain YPT6, stronger effect = lower value
Hit rate of the full screen: of about 5,500 compounds, about 2,000 (36%) were called active. About 18% were inconclusive and are not listed. The list shows a part of the results.
normalized growth values, listed per item
measurement-name: normalized growth

compound	measurement-name	obs-value
Cc1noc(N)c1C(N)=S	normalized growth	1.01
CC(=O)NCc1c(I)c(NC(C)=O)c(I)c(C(=O)O)c1I	normalized growth	0.991
C/C=C(/C)C(=O)OC1CCC2(C)C3CCC4C5(O)CC(O)C6(O)C(CN7CC(C)CCC7C6(C)O)C5(O)CC42OC13O (stereo unspecified)	normalized growth	1
CCOC(=O)NC(=O)c1cn(Cc2cccs2)c(=O)[nH]c1=O	normalized growth	0.999
COc1c(CC(=O)c2cc3c(cc2O)OC(C)(C)C(O)C3)ccc2c1C=CC(C)(C)O2 (stereo unspecified)	normalized growth	1.02
CC(=O)OC1CC(OC(C)=O)C2(C)C(CC(OC(C)=O)C3(C)C4=CC(=O)OC(=O)C4(C)CCC32)C1(C)C (stereo unspecified)	normalized growth	0.985

====

assay-comment: chemical genetic growth profiling, strain panel (AID 1159580);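 further: tested at 20 µM; growth read once vehicle control cultures reached saturation at 30 °C; 1 = growth at the plate median or of vehicle wells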
applied-conditions: S. cerevisiae deletion strains, growth OD, locus YOR231W, strain MKK1, stronger effect = lower value
Hit rate of the full screen: of about 5,500 compounds, about 2,000 (36%) were called active. Roughly 18% stayed inconclusive and do not appear here. The list shows a part of the results.
Note to self: normalized growth under 1 means rule met, ties and anything higher get rule not met.

compound	qualitative-label
N=C(N)SCCN	rule not met
C[C@@H]1C(=O)O[C@H]2[C@H]1CC[C@@]1(C)C=CC(=O)[C@@]3(C)O[C@@]213	rule not met
CC(C)=CCCC1(C)C=Cc2c(O)c3c(c(CC=C(C)C)c2O1)OC12C(CC4CC1C(C)(C)OC2(C/C=C(/C)C(=O)O)C4O)C3=O (configuration not stated)	rule met
O=C(Nc1ccc(C(=O)O)c(O)c1)c1ccccc1	rule met
O=c1[nH]cc(F)c(=O)[nH]1	rule met
O=[N+]([O-])c1cnc(Sc2nnc(SCc3cccc(C(F)(F)F)c3)s2)s1	rule met
O=S(=O)(c1ccc(Cl)cc1)N(Cc1cccnc1)Cc1ccc(Cl)cc1Cl	rule met
CC(C)CCCC1(C)C=Cc2c(O)c3c(c(CCC(C)C)c2O1)OC12C(CC4CC1C(C)(C)OC2(CCC(C)C(=O)O)C4O)C3=O (configuration not stated)	rule met
CN(C)CCCSC(=N)N	rule met
O=C(c1ccc(Cl)cc1)N(Cc1ccccc1)Cc1cccnc1	rule met
CC(C)=CCCC1(C)C=Cc2c(O)c3c(c(CC=C(C)C)c2O1)OC12C(=CCCC1C(C)(C)O[C@@]2(C/C=C(\C)C(=O)O)C(=O)O)C3=O (some centres not stated)	rule met
C#C[C@]1(OC(C)=O)CCC2C3CCC4=CC(=O)CC[C@@H]4C3CC[C@@]21C (some centres not stated)	rule met
